tested on: SF-268 CNS; assay: NCI tumour cell line growth inhibition, 48 h
quantity.name: TGI

Examples from the recorded data:
Recorded TGI (compound FC(F)(F)c1cccc(C=NC23CC4CC(CC(C4)C2)C3)c1 ): > 100 µM

For CCC(=O)Nc1cccc(NC(=O)c2c(Cl)c(Cl)c(Cl)c(Cl)c2-c2nc3ccccc3[nH]2)c1 the compound record lists TGI as > 100 µM

Reported TGI ( COC(=O)[C@]1(C)CC[C@]2(C)CC[C@]3(C)C4[C@H]5Oc6c(cc7c(c6C)CCC6[C@@]7(C)CC[C@@]7(C)C8[C@](C)(CCC[C@@]8(C)C(=O)OC)CC[C@]67C)O[C@H]5c5c(cc6c(c5C)O[C@@]5(C)C7=CC=C8[C@@](C)(CC[C@@]9(C)[C@@H]%10C[C@](C)(C(=O)OC)CC[C@]%10(C)CC[C@]89C)C7=CC(=O)[C@@]5(O)O6)[C@]4(C)CC[C@@]3(C)C2C1 (some centres not stated) ) = > 12.5 µM

// next entry
Just so you know, measured TGI for Clc1ccc(N=C2c3ccccc3CN2c2ccc(Cl)cc2)cc1 came out at > 100 µM
